Measured values drawn from PubChem BioAssay for this set.

experiment summary: sensitizers of A549 cells to miR-34 induction, primary screen, imaging, A549 dox-inducible miR-34, nuclei and caspase counts (AID 1347080); further: test concentration not given here
experimental context: A549 miR-34 inducible, Hoechst nuclei count, 48 h; stronger effect = lower value; cell number ratio, induced over uninduced
Parameter: fold change. Scope: all listed entries.

molecule: CC(O)C(=O)O (stereo not drawn)
fold change: 0.885
//
molecule: NC(=O)CCCCC1CCSS1 (stereo not drawn)
fold change: 0.89
//
molecule: CN1CCCC(CC2c3ccccc3Sc3ccccc32)C1 (stereo not drawn)
fold change: 0.892
//
molecule: COc1ccccc1O
fold change: 0.954
//
molecule: CC(=O)Nc1ccc(C(=O)O)cc1
fold change: 0.937
//
molecule: CC(=O)N(CC(O)CO)c1c(I)c(C(=O)NCC(O)CO)c(I)c(C(=O)NCC(O)CO)c1I (stereo not drawn)
fold change: 0.842
//
molecule: CCCCCCCCCCCCCCCC[N+](C)(C)CCN(Cc1ccc(OC)cc1)c1ncccn1
fold change: 0.797
//
molecule: CCOC(=O)/C=C(C)/C=C/C=C(C)/C=C/c1c(C)cc(OC)c(C)c1C
fold change: 0.857
